system-under-test: CDK4 (Homo sapiens, UniProt P11802)
Construct: endogenous in cells; host or cells: C33A
test-details: CDK4 Degradation Assay, Western blotting
Type: cell-based
Experimental: C33A cells were purchased from American Type Culture Collection (ATCC) and were cultured in Dulbecco's Modified Eagle Medium (DMEM) containing 10% (v/v) fetal bovine serum (FBS) and maintained at 37° C. with 5% CO2. […] Cells were washed twice with cold PBS, scraped, and pelleted by centrifugation (700 g, 5 min, 4° C.). […] Proteome concentrations were determined using BCA assay and lysate was diluted to appropriate working concentrations. […]
Listing of entries alongside the reported DC50.
outcome-measure: DC50

query-smiles: COc1ccc(C(=O)/C=C/C(=O)N2CCCN(c3ccc(Nc4ncc5cc(C(=O)N(C)C)n(C6CCCC6)c5n4)nc3)CC2)cc1
reported-measurement: 1 to 10 µM
//
query-smiles: COc1ccc(C(=O)/C=C/C(=O)N2CCN(c3ccc(Nc4ncc5cc(C(=O)N(C)C)n(C6CCCC6)c5n4)nc3)C[C@H]2C)cc1
reported-measurement: 1 to 10 µM
//
query-smiles: Cc1ccc(C(=O)/C=C/C(=O)N2CCN(c3ccc(Nc4ncc5cc(C(=O)N(C)C)n(C6CCCC6)c5n4)nc3)CC2)cc1
reported-measurement: 1 to 10 µM
//
query-smiles: CN(C)C(=O)c1cc2cnc(Nc3ccc(N4CCN(C(=O)/C=C/C(=O)c5ccccc5Cl)CC4)cn3)nc2n1C1CCCC1
reported-measurement: > 10 µM
//
query-smiles: CN(C)C(=O)c1cc2cnc(Nc3ccc(N4CCN(C(=O)/C=C/C(=O)c5ccc(Br)cc5)CC4)cn3)nc2n1C1CCCC1
reported-measurement: > 10 µM
//
query-smiles: CN(C)C(=O)c1cc2cnc(Nc3ccc(N4CCN(C(=O)/C=C/C(=O)c5ccccc5)CC4)cn3)nc2n1C1CCCC1
reported-measurement: > 10 µM
//
query-smiles: COc1ccccc1C(=O)/C=C/C(=O)N1CCN(c2ccc(Nc3ncc4cc(C(=O)N(C)C)n(C5CCCC5)c4n3)nc2)CC1
reported-measurement: > 10 µM
//
query-smiles: COc1ccc(C(=O)/C=C/C(=O)N2CCN(c3ccc(Nc4ncc5cc(C(=O)N(C)C)n(C6CCCC6)c5n4)nc3)C[C@@H]2C)cc1
reported-measurement: 1 to 10 µM
//
query-smiles: COc1ccc(C(=O)/C(C)=C/C(=O)N2CCN(c3ccc(Nc4ncc5cc(C(=O)N(C)C)n(C6CCCC6)c5n4)nc3)CC2)cc1
reported-measurement: > 10 µM
//
query-smiles: COc1ccc(C(=O)/C=C/C(=O)N(C)CCN(C)c2ccc(Nc3ncc4cc(C(=O)N(C)C)n(C5CCCC5)c4n3)nc2)cc1
reported-measurement: > 10 µM
//
query-smiles: CN(C)C(=O)c1cc2cnc(Nc3ccc(N4CCN(C(=O)/C=C/C(=O)c5ccc6c(c5)NC(=O)CO6)CC4)cn3)nc2n1C1CCCC1
reported-measurement: > 10 µM
//
query-smiles: COc1ccc(C(=O)/C=C/C(=O)N2CCN(c3ccc(Nc4ncc5cc(C(=O)N(C)C)n(C6CCCC6)c5n4)nc3)[C@@H](C)C2)cc1
reported-measurement: 1 to 10 µM
//
query-smiles: CN(C)C(=O)c1cc2cnc(Nc3ccc(N4CCN(C(=O)/C=C/C(=O)c5cccc(C(F)(F)F)c5)CC4)cn3)nc2n1C1CCCC1
reported-measurement: > 10 µM
//
query-smiles: CN(C)C(=O)c1cc2cnc(Nc3ccc(N4CCN(C(=O)/C=C/C(=O)c5ccc6c(c5)CCO6)CC4)cn3)nc2n1C1CCCC1
reported-measurement: > 10 µM
//
query-smiles: CN(C)C(=O)c1cc2cnc(Nc3ccc(N4CCN(C(=O)/C=C/C(=O)c5ccccc5Br)CC4)cn3)nc2n1C1CCCC1
reported-measurement: > 10 µM
//
query-smiles: COc1ccc(C(=O)/C=C/C(=O)N2CCN(c3ccc(Nc4ncc5cc(C(=O)N(C)C)n(C6CCCC6)c5n4)nc3)CC2)cc1F
reported-measurement: > 10 µM
//
query-smiles: CN(C)C(=O)c1cc2cnc(Nc3ccc(N4CCN(C(=O)/C=C/C(=O)c5ccc(C#N)cc5)CC4)cn3)nc2n1C1CCCC1
reported-measurement: > 10 µM
//
query-smiles: COc1cc(F)ccc1C(=O)/C=C/C(=O)N1CCN(c2ccc(Nc3ncc4cc(C(=O)N(C)C)n(C5CCCC5)c4n3)nc2)CC1
reported-measurement: > 10 µM
//
query-smiles: COc1ccc(C(=O)/C=C(\C#N)C(=O)N2CCN(c3ccc(Nc4ncc5cc(C(=O)N(C)C)n(C6CCCC6)c5n4)nc3)CC2)cc1
reported-measurement: > 10 µM
//
query-smiles: COc1ccc(C(=O)/C=C/C(=O)N[C@H]2C[C@H](Nc3ccc(Nc4ncc5cc(C(=O)N(C)C)n(C6CCCC6)c5n4)nc3)C2)cc1
reported-measurement: > 10 µM
//
query-smiles: Cc1ccccc1C(=O)/C=C/C(=O)N1CCN(c2ccc(Nc3ncc4cc(C(=O)N(C)C)n(C5CCCC5)c4n3)nc2)CC1
reported-measurement: > 10 µM
